Listed next: entries and their corresponding caspase-3/7 activity (Lum) with compound alone.
Test system: cisplatin-resistant ovarian cancer cell line A2780cis
assay protocol: Caspase-3/7 activity assay (apoptotic cell death), compound alone or with cisplatin
Type: cell-based, human
condition notes: Table 6; compound 5 μM; 20 h; untreated cells 9 ± 1
Dear colleague, please return just the value in Lum, with no unit written.

Illustrative cases are given below, each with its answer.
# query: caspase-3/7 activity (Lum) with compound alone of entry Cc1ccc(-n2c(=S)[nH]c3ccccc3c2=O)cc1F [Compound 1-17] 15

Next compound up: CCOCCCn1c(=S)[nH]c2c(C)cccc2c1=O [Compound 1-6] 10

Entry CCc1ccccc1-n1c(=S)[nH]c2ccccc2c1=O [Compound 1-19] please 9

Same for CCCn1c(=S)[nH]c2cc(OC)c(OC)cc2c1=O [Compound 1-8] 10

Then this compound:
Need caspase-3/7 activity (Lum) with compound alone, item COc1cc(-n2c(=S)[nH]c3ccccc3c2=O)c(Cl)cc1Cl [mdivi-1, reference compound] 10

* * *

Each entry below carries its recorded Survival (%) of cells with compound and carboplatin (200 μM).
Tested on: cisplatin-resistant ovarian cancer cell line A2780cis
assay protocol: CellTiter-Blue cell viability assay, compound alone or with cisplatin or carboplatin, 24 h
Assay type: cell-based, human
condition notes: compound 50 μM + carboplatin 200 μM; 24 h
Provide the measurement as a number trailed by its unit.

Worked cases, Survival (%) of cells with compound and carboplatin (200 μM) given:
Request body: readout Survival (%) of cells with compound and carboplatin (200 μM), system cisplatin-resistant ovarian cancer cell line A2780cis, query CCOCCCn1c(=S)[nH]c2c(C)cccc2c1=O [Compound 1-6] . Return the value. 2.5 ± 0.4%

Now this one: CCCn1c(=S)[nH]c2cc(OC)c(OC)cc2c1=O [Compound 1-8] 42.5 ± 2.3%

Please give the result for CCc1ccccc1-n1c(=S)[nH]c2ccccc2c1=O [Compound 1-19] too. 31.6 ± 4.2%

Please give the result for COc1cc(-n2c(=S)[nH]c3ccccc3c2=O)c(Cl)cc1Cl [mdivi-1, reference compound] too. 40.6 ± 3.0%

# ---- query compound ----
API: value(readout= Survival (%) of cells with compound and carboplatin (200 μM), system= cisplatin-resistant ovarian cancer cell line A2780cis, query= Cc1ccc(-n2c(=S)[nH]c3ccccc3c2=O)cc1F [Compound 1-17] ) 69.7 ± 4.1%

* * *

Listing: Survival (%) of cells with compound and carboplatin (200 μM) of selected compounds
Tested on: cisplatin-resistant ovarian cancer cell line A2780cis
assay protocol: CellTiter-Blue cell viability assay, compound alone or with cisplatin or carboplatin, 24 h
Assay type: cell-based, human
condition notes: compound 10 μM + carboplatin 200 μM; 24 h
Give a bare numeral; the unit % is implied.

Before answering, review these 3 worked examples.
Survival (%) of cells with compound and carboplatin (200 μM) for COc1cc(-n2c(=S)[nH]c3ccccc3c2=O)c(Cl)cc1Cl [mdivi-1, reference compound] ? 92.6

And what about the compound Cc1ccc(-n2c(=S)[nH]c3ccccc3c2=O)cc1F ? 90.7

Next record, please: CCOCCCn1c(=S)[nH]c2c(C)cccc2c1=O 64.5

Kindly consider the entry below.
Which Survival (%) of cells with compound and carboplatin (200 μM) is listed for CCc1ccccc1-n1c(=S)[nH]c2ccccc2c1=O ? 103.5

* * *

Test system: cisplatin-resistant ovarian cancer cell line A2780cis
assay protocol: Caspase-3/7 activity assay (apoptotic cell death), compound alone or with cisplatin
Format: cell-based, human
condition notes: Table 3; compound 20 μM with 20 μM of cisplatin; 20 h
Kindly return Y if reported caspase-3/7 activity (Lum), compound with cisplatin is no lower than 20 Lum; return N if it is lower.

Check if caspase-3/7 activity (Lum), compound with cisplatin >= 20 Lum (inclusive). Item: NC(=O)c1ccccc1NC(=S)NC(=O)c1ccco1 [Compound 2-29] N

Same again, this time with O=C(NC(=S)Nc1ccc(F)c(Cl)c1)C1CCCCC1 [Compound 2-16] N

Query O=C(CNC(=S)NC(=O)c1ccc(F)cc1)c1ccccc1 [Compound 2-22] next Y

Please do the same for Cc1ccc(C(=O)NC(=S)Nc2ccc(C)cn2)cc1 [Compound 2-24] as well. N

Next compound: O=C1NC(=S)NC(=O)C1=Cc1c[nH]c2ccccc12 [Compound 2-7] Y

More entries:
Is the recorded value of caspase-3/7 activity (Lum), compound with cisplatin equal to or greater than 20 Lum for this compound? O=C(NC(=S)Nc1ccccn1)c1ccccc1 [Compound 2-32] N

Cool, now COc1ccc(C=C2C(=O)NC(=S)NC2=O)c(OC)c1 [Compound 2-6] Y

Follow-up item: COc1ccc(C(C)=C2C(=O)NC(=S)NC2=O)cc1 [Compound 2-25] Y

Also need O=C(NC(=S)Nc1ccccc1N1CCCC1)c1cccs1 [Compound 2-4] , thanks. N

* * *

System: cisplatin-resistant ovarian cancer cell line A2780cis
assay protocol: Caspase-3/7 activity assay (apoptotic cell death), compound alone or with cisplatin
Type: cell-based, human
condition notes: Table 4; compound 20 μM; 20 h
Description: Cell proliferation was determined using a CyQUANT Direct Cell Proliferation Assay kit (Invitrogen), the activity of caspase-3/7 was measured using a Caspase-Glo 3/7 Assay Systems (Promega, Madison, Wis.), and the MTS calorimetric survival assay was performed using the CellTiter 96 AQueous One Solution Cell Proliferation Assay kit (Promega, Madison, Wis.), according to the manufacturer's instructions. The survival fractions were calculated after setting untreated control cells at 100%. […]
value type: caspase-3/7 activity (Lum), compound alone
Please give a number only; it is taken to be in Lum.

Would you please look over these solved cases?
Name the reported caspase-3/7 activity (Lum), compound alone value associated with the molecule CC(C)C(=O)NC(=S)Nc1nc2ccc(Cl)cc2s1 11

Would you kindly repeat that for COc1cc(-n2c(=S)[nH]c3ccccc3c2=O)c(Cl)cc1Cl [mdivi-1, reference compound] ? 20

Also check O=C(NC(=S)Nc1ccccn1)c1ccccc1 0

Queued: O=C1NC(=S)NC(=O)C1=Cc1c[nH]c2ccccc12 25

How about this molecule: Cc1ccc(NC(=S)NC(=O)c2cccs2)nc1 9

Please turn your attention to the following entry.
Quick one: caspase-3/7 activity (Lum), compound alone of N.N.[Cl][Pt][Cl] [cisplatin, reference compound] ? 35

* * *

Catalogue of survival (%) of cells with compound and cisplatin (20 μM) values
System: cisplatin-resistant ovarian cancer cell line A2780cis
assay protocol: CellTiter-Blue cell viability assay, compound alone or with cisplatin or carboplatin, 24 h
Assay type: cell-based, human
condition notes: compound 10 μM + cisplatin 20 μM; 24 h
Numbers only here, please. The scale is %.

// lookup survival (%) of cells with compound and cisplatin (20 μM) for COc1cc(-n2c(=S)[nH]c3ccccc3c2=O)c(Cl)cc1Cl [mdivi-1, reference compound] 87.4

Item: O=C(NC(=S)Nc1ccccn1)c1ccccc1 102.7

Then CCCn1c(=S)[nH]c2cc(OC)c(OC)cc2c1=O ? 53.4

Ok, now O=C1NC(=S)NC(=O)C1=Cc1c[nH]c2ccccc12 91.9

Same question for O=c1c2ccccc2[nH]c(=S)n1Cc1cccnc1 please. 89.8

Cc1ccc(NC(=S)NC(=O)c2cccs2)nc1 , same question. 100.4

Further, for CCc1ccccc1-n1c(=S)[nH]c2ccccc2c1=O ? 47.9

// query: CC(C)C(=O)NC(=S)Nc1nc2ccc(Cl)cc2s1 92.5

Moving on to the next compound: CCOCCCn1c(=S)[nH]c2c(C)cccc2c1=O 58.8

Then this compound: Cc1cccc(-n2c(=S)[nH]c3cc(Cl)ccc3c2=O)c1C 90.8

Follow-up entry: Cc1ccc(-n2c(=S)[nH]c3ccccc3c2=O)cc1F 63.0

Now consider O=c1c2ccccc2[nH]c(=S)n1Cc1ccccc1 and answer again. 73.4

* * *

Test system: cisplatin-resistant ovarian cancer cell line A2780cis
assay protocol: CellTiter-Blue cell viability assay, compound alone or with cisplatin or carboplatin, 24 h
Assay type: cell-based, human
condition notes: compound 20 μM + carboplatin 200 μM; 24 h
Recorded Survival (%) of cells with compound and carboplatin (200 μM) by entry
Answer format: numeric, % implied, no suffix.

Name the recorded Survival (%) of cells with compound and carboplatin (200 μM) for CCOCCCn1c(=S)[nH]c2c(C)cccc2c1=O [Compound 1-6] . 48.0

* * *

System: cisplatin-resistant ovarian cancer cell line A2780cis
assay protocol: CellTiter-Blue cell viability assay, compound alone or with cisplatin or carboplatin, 24 h
Format: cell-based, human
condition notes: Homo sapiens, A2780cis; compound 50 μM; 24 h; untreated cells = 100%; read-out: survival (%) of cells with compound alone
Protocol: Data were expressed as mean±standard deviation. A Student's t test was used for the comparisons between the treatment with the combination of analogs with cisplatin and with analogs alone. P<0.05 was considered statistically significant. Combination index was calculated using CompuSyn software. A value of 0.3-0.7 for the combination index indicates synergism, 0.1-0.3 indicates strong synergism, and <0.1 indicates very strong synergism (Chou, 2006). […]
Listing of entries alongside the reported viability at 50 µM.
Write it as a number; the unit % goes unstated.

# example entries with known answers
State the recorded viability at 50 µM for this entry: Cc1ccc(NC(=S)NC(=O)c2cccs2)nc1 95.1

Repeat for the following compound: CCOCCCn1c(=S)[nH]c2c(C)cccc2c1=O 93.7

// same read-out, input: O=c1c2ccccc2[nH]c(=S)n1Cc1ccccc1 98.1

What about O=c1c2ccccc2[nH]c(=S)n1Cc1cccnc1 ? 91.8

// moving on: another record for viability at 50 µM
What does the data say about its viability at 50 µM? Entry: CC(C)C(=O)NC(=S)Nc1nc2ccc(Cl)cc2s1 65

Reference for the values: patent US10478437B2
